Below: a set of entries, each annotated with reported solubility in G1/S (log2).
Test system: HeLa Kyoto;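 further: HeLa Kyoto cells arrested at G1/S by double thymidine block, proteins quantified by TMT10plex mass spectrometry in mild NP-40 versus SDS extracts, three biological replicates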
Test: solubility in G1/S (NP-40 vs SDS abundance) (log2 ratio); higher = more soluble
Settings: cell cycle stage: G1/S
I'd appreciate a reply containing only the number, no unit.

Known solubility in G1/S (log2) results, listed for orientation:
{"Ordered residues": "MAALGRPFSGLPLSGGSDFLQPPQPAFPGRAFPPGADGAELAPRPGPRAVPSSPAGSAARGRVSVHCKKKHKREEEEDDDCPVRKKRITEAELCAGPNDWILCAHQDVEGHGVNPSVSGLSIPGILDVICEEMDQTTGEPQCEVARRKLQEIEDRIIDEDEEVEADRNVNHLPSLVLSDTMKTGLKREFDEVFTKKMIESMSRPSMELVLWKPLPELLSDKPKPSSNTKNYTGESQAKHVAAGTAFPQRTELFSEPRPTGMSLYNSLETATSTEEEMEL [CCDC117]", "solubility in G1/S (log2)": 0.515}
{"Ordered residues": "MPQYQTWEEFSRAAEKLYLADPMKARVVLKYRHSDGNLCVKVTDDLVCLVYKTDQAQDVKKIEKFHSQLMRLMVAKEARNVTMETE [SRP9]", "solubility in G1/S (log2)": -0.607}

Attention now turns to another entry.
Endpoint output: solubility in G1/S (log2) of MALLLCFVLLCGVVDFARSLSITTPEEMIEKAKGETAYLPCKFTLSPEDQGPLDIEWLISPADNQKVDQVIILYSGDKIYDDYYPDLKGRVHFTSNDLKSGDASINVTNLQLSDIGTYQCKVKKAPGVANKKIHLVVLVKPSGARCYVDGSEEIGSDFKIKCEPKEGSLPLQYEWQKLSDSQKMPTSWLAEMTSSVISVKNASSEYSGTYSCTVRNRVGSDQCLLRLNVVPPSNKAGLIAGAIIGTLLALALIGLIIFCCRKKRREEKYEKEVHHDIREDVPPPKSRTSTARSYIGSNHSSLGSMSPSNMEGYSKTQYNQVPSEDFERTPQSPTLPPAKVAAPNLSRMGAIPVMIPAQSKDGSIV [CXADR] . Value? 0.245
